B1: EHMT1 (parent)
chain: EEINKNISDFGRQQLLPPFPSLHQ

- Variants of: B1
- Protocol: protein stability index of a GFP-peptide fusion (GPS, HEK-293T) (PSI 1-6); higher = more stable;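 also: lentivirally expressed fusions sorted by FACS into six bins by GFP to DsRed ratio, PSI derived from sequencing read proportions per bin multiplied by bin number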
- Reported conditions: c terminus: a fixed tail appended
Attribute measured: protein stability index

input_sequence=EEIVKNISDFGRQQLLPPFPSLHQ value_observed=2.53
input_sequence=EEINKTISDFGRQQLLPPFPSLHQ value_observed=2.65
input_sequence=EIINKNISDFGRQQLLPPFPSLHQ value_observed=2.14
input_sequence=EEINKNISDFGRQQLLPPFPDLHQ value_observed=3.9
input_sequence=EEINKNISDFGRQQLLPPFMSLHQ value_observed=2.51
input_sequence=EEINKNISDFGRQQLLPTFPSLHQ value_observed=2.92
input_sequence=EEINKNISDFGRQQLLPRFPSLHQ value_observed=3.57
input_sequence=EEINKNKSDFGRQQLLPPFPSLHQ value_observed=2.79
input_sequence=EEINKNISDFGRQQLLPKFPSLHQ value_observed=3.36
input_sequence=EEIYKNISDFGRQQLLPPFPSLHQ value_observed=2.01

Request: Reported protein stability index, variant `EEINKNISDFGRQQLLPPFPRLHQ` : ____
Response: 3.21

Request: Reported protein stability index, variant `EEINKNISPFGRQQLLPPFPSLHQ` : ____
Response: 2.45

Request: Reported protein stability index, variant `EEINKNISDFGRQQLLPPFPSLHM` : ____
Response: 2.77

Request: Reported protein stability index, variant `EEINKNYSDFGRQQLLPPFPSLHQ` : ____
Response: 2.73

Request: Reported protein stability index, variant `EEINKNISHFGRQQLLPPFPSLHQ` : ____
Response: 2.41

Request: Reported protein stability index, variant `EPINKNISDFGRQQLLPPFPSLHQ` : ____
Response: 2.65
